Reported Ki, D(3) dopamine receptor (Homo sapiens, UniProt P35462).
ENDPOINT: Ki (nM)

Sample `COc1ccccc1N1CCN(Cc2ccc3cccccc2-3)CC1` ; Ki observed: 83

Ki for `COc1ccccc1N1CCN(Cc2cc(CN3CCOCC3)c3cccccc2-3)CC1` is 350

For reference, reported Ki for `COc1ccccc1N1CCN(Cc2cc(C#Cc3ccccc3)c3cccccc2-3)CC1` stands at 210

(P) COc1ccccc1N1CCN(Cc2cc(CN3CCCCC3)c3cccccc2-3)CC1
(Q) COc1ccccc1N1CCN(Cc2cc(CN3CCN(C)CC3)c3cccccc2-3)CC1
In terms of reported Ki, does P or Q have the smaller number? Choose, then provide that item's label.
P
(P: 160 nM, Q: 460 nM)

* * *

Test: Displacement of [3H]WAY100635 from 5-HT1A receptor in porcine cerebral cortex homogenate after 60 mins by scintillation counting analysis
Format: tissue-based, Sus scrofa
pKi: −log10 of the molar value.
ENDPOINT: pKi

These solved cases illustrate the format of a correct answer.
`COc1ccccc1N1CCN(Cc2cc(C#Cc3ccccc3)c3cccccc2-3)CC1` has a reported pKi of 6.11

// recorded pKi for `COc1ccccc1N1CCN(Cc2cc(CN3CCN(C)CC3)c3cccccc2-3)CC1` : 7.04

(A) COc1ccccc1N1CCN(Cc2cc(CN3CCCCC3)c3cccccc2-3)CC1
(B) COc1ccccc1N1CCN(Cc2cc(CO)c3cccccc2-3)CC1
(C) C#Cc1cc(CN2CCN(c3ccccc3OC)CC2)c2cccccc1-2
Order these by pKi, descending, and give the full ranking. List the labels in the requested order.
A, B, C
